Data provenance is PubChem BioAssay (EPA / NIEHS).

read-out: Cytochrome P450 (CYP24A1), CYP24A1 (gene 1591); assay: LTEA_HepaRG_CYP24A1: Life Technologies and Expression Analysis (LTEA) Assay for Cytochrome P450 (CYP24A1) using HepaRG (AID 2283478); settings: mRNA level, 48 h; actives raise or lower the signal
The source made the active and inactive calls. Rule for the calls: active = hit-call score of the fitted dose curve at least 0.9, where 1 is the maximum; inactive = score below 0.9.
property_name: AC50

Below are worked cases with known answers.
>  <molecule>
CCCN(CCC)c1c([N+](=O)[O-])cc(C(F)(F)F)c(N)c1[N+](=O)[O-]

>  <AC50>
inactive

$$$$
>  <molecule>
Cc1nn(C)c(Oc2ccccc2)c1C=NOCc1ccc(C(=O)OC(C)(C)C)cc1

>  <AC50>
inactive

$$$$
>  <molecule>
CCCCCOC(=O)COc1cc(N2C(=O)C3=C(CCCC3)C2=O)c(F)cc1Cl

>  <AC50>
3.16 nM (active)

$$$$
>  <molecule>
O=C(O)c1ccccc1

>  <AC50>
inactive

$$$$
>  <molecule>
CCC(C)OC(=O)N1CCCCC1CCO (stereo unspecified)

>  <AC50>
inactive

$$$$

// lookup AC50 for CCOC(=O)c1ccc(O)cc1 inactive

---

Assay: APR_HepG2_CellLoss_72hr: Apredica 72-hour HepG2 Assay for Cell Loss (AID 2282915)
Settings: high-content imaging
Protocol: APR_HepG2_72hr is a cell-based, multiplexed-readout assay that uses HepG2, a human liver cell line, with measurements taken at 72 hours after chemical dosing in a 384-well plate.APR_HepG2_CellLoss_72hr is one of 10 assay component(s) measured or calculated from the APR_HepG2_72hr assay. […] This assay endpoint, APR_HepG2_CellLoss_72hr, was analyzed with bidirectional fitting relative to DMSO as the negative control and baseline of activity. […]
Activity calls are given as the source filed them. Rule for the calls: active = hit-call score of the fitted dose curve at least 0.9, where 1 is the maximum; inactive = score below 0.9.
property_name: AC50

>  <compound>
CCCOC(=O)NCCCN(C)C

>  <AC50>
inactive

$$$$
>  <compound>
COC(=O)CSc1cc(N=c2sc(=O)n3n2CCCC3)c(F)cc1Cl

>  <AC50>
98.9 µM (active)

$$$$
>  <compound>
O=C(c1ccccc1)C1CCCCC1

>  <AC50>
inactive

$$$$
>  <compound>
CCOC(=O)C(C)Oc1ccc(Oc2nc3ccc(Cl)cc3o2)cc1 (stereo not drawn)

>  <AC50>
90.1 µM (active)

$$$$

What measured AC50 goes with OB(O)O ? inactive

Look up AC50 for this compound: c1ccc(Nc2ccccc2)cc1 inactive

I am curious: what AC50 value has been reported for CCCCC(CC)COC(=O)c1ccccc1C(=O)O (stereo not drawn) ? inactive

// returns reported AC50 for input C[C@]12CC[C@@H]3c4ccc(O)cc4C[C@@H](CCCCCCCCCS(=O)CCCC(F)(F)C(F)(F)F)[C@H]3[C@@H]1CC[C@@H]2O (stereo partly drawn) inactive

Please look up its AC50: CCC(C)OC(=O)N1CCCCC1CCO (stereo not drawn) inactive

Query: AC50; subject: O=C(c1ccc(O)cc1O)c1ccc(O)cc1O inactive

---

read-out: Cytochrome P450 2B6 (Homo sapiens) (UniProt P20813); test: CLD_CYP2B6_48hr: CellzDirect (CLD) Gene Expression Assay for xenobiotic metabolism (CYP2B6) at 48 hours (AID 2283699);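 note: actives raise transcript level above DMSO so potency reflects induction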
Inconclusive results are not listed. Active and inactive are the calls of the source. How the source made its calls: active means hit-call score of the fitted dose curve at least 0.9, where 1 is the maximum; inconclusive means response in the unintended direction; inactive means score below 0.9.
# output must be one of active, inactive

>  <compound>
CC1(C)C(C=C(Cl)Cl)C1C(=O)OCc1cccc(Oc2ccccc2)c1 (centres undefined)

>  <category_label>
active

$$$$
>  <compound>
C=CCOC(Cn1ccnc1)c1ccc(Cl)cc1Cl (centres undefined)

>  <category_label>
active

$$$$
>  <compound>
CCCCC(CC)COC(=O)c1ccccc1C(=O)O (centres undefined)

>  <category_label>
active

$$$$

Query: recorded result category for CCCCOCCOCCOCc1cc2c(cc1CCC)OCO2 in this test active

Please share the test call associated with CCCCCOC(=O)COc1cc(N2C(=O)C3=C(CCCC3)C2=O)c(F)cc1Cl . inactive

# outcome recorded in this test, key = COC(=O)CSc1cc(N=c2sc(=O)n3n2CCCC3)c(F)cc1Cl active
